target: Cyclin-dependent kinase 4/G1/S-specific cyclin-D1 (Homo sapiens, UniProt P11802)
Sequence (P11802 whole entry): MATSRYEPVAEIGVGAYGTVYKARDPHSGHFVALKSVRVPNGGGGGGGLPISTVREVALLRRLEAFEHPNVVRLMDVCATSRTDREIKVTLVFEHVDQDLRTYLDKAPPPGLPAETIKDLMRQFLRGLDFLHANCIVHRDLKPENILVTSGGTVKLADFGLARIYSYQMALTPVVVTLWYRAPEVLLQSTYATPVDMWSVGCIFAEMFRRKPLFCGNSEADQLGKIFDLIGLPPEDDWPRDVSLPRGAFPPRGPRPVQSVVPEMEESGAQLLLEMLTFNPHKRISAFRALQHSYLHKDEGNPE
Sequence (P24385 whole entry, further chain): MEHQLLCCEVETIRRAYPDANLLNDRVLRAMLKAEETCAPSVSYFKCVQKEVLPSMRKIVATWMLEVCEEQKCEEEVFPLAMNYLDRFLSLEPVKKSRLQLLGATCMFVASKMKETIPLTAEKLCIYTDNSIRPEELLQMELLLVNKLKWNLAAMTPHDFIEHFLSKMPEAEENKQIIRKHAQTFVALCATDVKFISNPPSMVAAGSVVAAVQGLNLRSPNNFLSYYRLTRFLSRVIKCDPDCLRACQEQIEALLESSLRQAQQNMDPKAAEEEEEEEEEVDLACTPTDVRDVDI
assay-details: In Vitro Kinase Assay
experimental-endpoint: IC50 (nM)
Answers are plain numbers, in nM.

These solved cases illustrate the format of a correct answer.
INSERT INTO measurements (smiles_entry, experimental_endpoint, quantitative_readout) VALUES
  ('CC(C)c1nn(-c2c(Cl)cccc2Cl)c2nc(Cc3ccc(OCCN4CCOCC4)cc3)[nH]c(=O)c12', 'IC50', 1750),
  ('COc1ccc(Cc2nc3c(c(C(C)C)nn3-c3c(Cl)cc(Cl)cc3Cl)c(=O)[nH]2)cc1', 'IC50', 858);

# context switch: different molecule, same IC50
Reported IC50 for Cyclin-dependent kinase 4/G1/S-specific cyclin-D1 (Homo sapiens, UniProt P11802), given CC(C)c1nn(-c2c(Cl)cccc2Cl)c2nc(Cc3ccc(OCCO)cc3)[nH]c(=O)c12 ? 839

---

target: Cyclin-dependent kinase 2/G1/S-specific cyclin-E1 (Homo sapiens)
assay-details: In Vitro Kinase Assay
experimental-endpoint: IC50 (nM)
Give bare numbers, in nM.

These solved cases illustrate the format of a correct answer.
INSERT INTO measurements (smiles_entry, target, quantitative_readout) VALUES
  ('CC(C)c1nn(-c2c(Cl)cccc2Cl)c2nc(Cc3ccc(OCCO)cc3)[nH]c(=O)c12', 'Cyclin-dependent kinase 2/G1/S-specific cyclin-E1 (Homo sapiens)', 15),
  ('COc1ccc(Cc2nc3c(c(C(C)C)nn3-c3c(Cl)cc(Cl)cc3Cl)c(=O)[nH]2)cc1', 'Cyclin-dependent kinase 2/G1/S-specific cyclin-E1 (Homo sapiens)', 7),
  ('CC(C)c1nn(-c2c(Cl)cccc2Cl)c2nc(Cc3ccc(OCCN4CCOCC4)cc3)[nH]c(=O)c12', 'Cyclin-dependent kinase 2/G1/S-specific cyclin-E1 (Homo sapiens)', 9);

# context switch: different compound, same IC50
Reported IC50 for Cyclin-dependent kinase 2/G1/S-specific cyclin-E1 (Homo sapiens), given COc1ccc(Cc2nc3c(c(C(C)C)nn3-c3c(Cl)cccc3Cl)c(=O)[nH]2)cc1 ? 4

---

target: Cyclin-dependent kinase 2/G1/S-specific cyclin-E1 (Homo sapiens, UniProt P24941)
assay-details: Inhibition Assay
experimental-endpoint: pIC50
Answers are plain numbers, as −log10 of the molar value.

Name the recorded pIC50 for COCCOCCOCCOc1ccc(Cc2nc3c(c(C(C)C)nn3-c3c(Cl)cccc3Cl)c(=O)[nH]2)cc1 . 7.66

---

target: Cyclin-dependent kinase 5 (Homo sapiens, UniProt Q00535)
Sequence (Q00535 whole entry): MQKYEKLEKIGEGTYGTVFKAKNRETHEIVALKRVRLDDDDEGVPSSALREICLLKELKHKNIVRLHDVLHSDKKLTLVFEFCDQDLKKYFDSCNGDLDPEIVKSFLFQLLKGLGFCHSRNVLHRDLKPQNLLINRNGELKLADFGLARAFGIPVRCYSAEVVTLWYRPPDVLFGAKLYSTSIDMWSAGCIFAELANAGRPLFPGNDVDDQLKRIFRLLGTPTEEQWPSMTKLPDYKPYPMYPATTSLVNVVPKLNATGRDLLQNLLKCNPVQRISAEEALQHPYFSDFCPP
experimental-endpoint: IC50

Name the recorded IC50 for CC(C)c1nn(-c2c(Cl)cccc2Cl)c2nc(Cc3ccc(OCCO)cc3)[nH]c(=O)c12 . 10 nM

---

target: CDK3/Cyclin E (Homo sapiens, UniProt Q00526)
Sequence (P24864 whole entry): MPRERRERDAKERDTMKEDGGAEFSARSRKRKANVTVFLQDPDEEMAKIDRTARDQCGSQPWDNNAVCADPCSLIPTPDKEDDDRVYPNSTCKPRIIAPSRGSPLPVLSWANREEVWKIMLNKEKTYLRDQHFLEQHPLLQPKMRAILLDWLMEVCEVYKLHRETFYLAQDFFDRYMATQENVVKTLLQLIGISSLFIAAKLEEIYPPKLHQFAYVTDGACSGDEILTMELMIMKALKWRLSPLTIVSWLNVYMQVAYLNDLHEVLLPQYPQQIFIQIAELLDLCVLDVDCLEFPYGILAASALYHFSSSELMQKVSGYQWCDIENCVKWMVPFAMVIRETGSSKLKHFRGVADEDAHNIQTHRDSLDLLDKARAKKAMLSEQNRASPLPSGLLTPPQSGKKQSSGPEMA
Sequence (Q00526 whole entry): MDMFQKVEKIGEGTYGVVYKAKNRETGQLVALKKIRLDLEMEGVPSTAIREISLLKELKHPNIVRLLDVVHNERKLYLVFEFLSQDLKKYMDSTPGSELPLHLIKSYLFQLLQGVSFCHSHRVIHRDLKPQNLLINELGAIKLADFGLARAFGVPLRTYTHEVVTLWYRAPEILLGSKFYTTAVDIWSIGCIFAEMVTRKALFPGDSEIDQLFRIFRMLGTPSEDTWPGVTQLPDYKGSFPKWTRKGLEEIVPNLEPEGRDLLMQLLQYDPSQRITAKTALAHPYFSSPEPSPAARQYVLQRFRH
assay-details: In Vitro Kinase Assay
experimental-endpoint: IC50 (nM)
Give bare numbers, in nM.

Name the recorded IC50 for CC(C)c1nn(-c2c(Cl)cccc2Cl)c2nc(Cc3ccc(OCCO)cc3)[nH]c(=O)c12 . 9

---

target: Glycogen synthase kinase-3 beta (Homo sapiens, UniProt P49841)
Sequence (P49841 whole entry): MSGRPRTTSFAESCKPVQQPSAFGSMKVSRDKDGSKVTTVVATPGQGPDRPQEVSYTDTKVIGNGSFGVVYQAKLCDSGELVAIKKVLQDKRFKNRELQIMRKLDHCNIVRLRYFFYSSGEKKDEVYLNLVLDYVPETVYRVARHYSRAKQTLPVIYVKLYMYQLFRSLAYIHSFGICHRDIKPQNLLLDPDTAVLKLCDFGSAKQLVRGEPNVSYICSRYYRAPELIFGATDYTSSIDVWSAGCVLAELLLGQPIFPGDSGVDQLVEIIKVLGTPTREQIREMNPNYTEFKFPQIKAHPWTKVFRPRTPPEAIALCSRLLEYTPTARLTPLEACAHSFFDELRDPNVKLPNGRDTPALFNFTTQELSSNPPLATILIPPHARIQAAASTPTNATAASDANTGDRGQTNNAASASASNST
experimental-endpoint: IC50 (µM)
One number for each entry, in µM.

Reported IC50 for Glycogen synthase kinase-3 beta (Homo sapiens, UniProt P49841), given CC(C)c1nn(-c2c(Cl)cccc2Cl)c2nc(Cc3ccc(OCCO)cc3)[nH]c(=O)c12 [Pyrazolopyrimidone analog, RGB-286147] ? 0.754

---

target: Cyclin-dependent kinase/G2/mitotic-specific cyclin- 1 (Homo sapiens, UniProt P06493)
Sequence (P06493 whole entry): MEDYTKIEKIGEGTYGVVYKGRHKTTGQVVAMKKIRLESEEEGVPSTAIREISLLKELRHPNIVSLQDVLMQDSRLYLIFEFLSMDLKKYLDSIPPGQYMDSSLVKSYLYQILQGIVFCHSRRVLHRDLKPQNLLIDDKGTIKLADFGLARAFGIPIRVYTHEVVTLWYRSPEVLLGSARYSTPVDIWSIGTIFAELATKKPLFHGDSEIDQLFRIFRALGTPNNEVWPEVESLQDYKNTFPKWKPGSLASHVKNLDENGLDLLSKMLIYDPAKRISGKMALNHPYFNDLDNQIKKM
Sequence (P14635 whole entry, further chain): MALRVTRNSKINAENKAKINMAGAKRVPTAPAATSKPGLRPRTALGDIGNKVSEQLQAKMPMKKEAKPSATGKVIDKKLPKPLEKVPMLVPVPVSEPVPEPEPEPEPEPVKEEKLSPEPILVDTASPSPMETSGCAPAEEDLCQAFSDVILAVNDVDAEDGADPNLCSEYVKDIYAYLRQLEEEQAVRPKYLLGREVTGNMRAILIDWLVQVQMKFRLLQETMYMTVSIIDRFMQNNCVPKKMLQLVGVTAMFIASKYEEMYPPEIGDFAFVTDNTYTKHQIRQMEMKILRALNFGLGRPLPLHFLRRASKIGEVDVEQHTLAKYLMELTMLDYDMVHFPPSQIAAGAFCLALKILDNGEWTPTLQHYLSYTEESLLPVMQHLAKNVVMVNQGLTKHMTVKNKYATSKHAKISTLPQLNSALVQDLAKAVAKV
assay-details: Cell Proliferation Assay
experimental-endpoint: IC50 (nM)
Numbers only, in nM.

Name the recorded IC50 for COCCOCCOCCOc1ccc(Cc2nc3c(c(C(C)C)nn3-c3c(Cl)cccc3Cl)c(=O)[nH]2)cc1 [PEGylated derivative, RGB-286276] . 34

---

target: Cyclin-dependent kinase/G2/mitotic-specific cyclin- 1 (Homo sapiens, UniProt P06493)
assay-details: Cell Proliferation Assay
Kindly state pIC50 for each of the entries shown.
One number for each entry, as −log10 of the molar value.

INSERT INTO results (smiles_entry, experimental_endpoint, quantitative_readout) VALUES
  ('COc1ccc(Cc2nc3c(c(C(C)C)nn3-c3c(Cl)cc(Cl)cc3Cl)c(=O)[nH]2)cc1', 'pIC50', 6.39);

For every item in the list below, what is its measured pIC50?
1. COc1ccc(Cc2nc3c(cnn3-c3c(Cl)cc(Cl)cc3Cl)c(=O)[nH]2)cc1
2. CC(C)c1nn(-c2c(Cl)cccc2Cl)c2nc(Cc3ccc(OCCO)cc3)[nH]c(=O)c12

1. 5.26
2. 7.29

For every item in the list below, what is its measured pIC50?
1. CC(C)c1nn(-c2c(Cl)cccc2Cl)c2nc(Cc3ccc(OCCN4CCOCC4)cc3)[nH]c(=O)c12
2. COc1ccc(Cc2nc3c(c(C(C)C)nn3-c3c(Cl)cccc3Cl)c(=O)[nH]2)cc1

[7.19, 6.66]

---

target: Cyclin-dependent kinase 6/G1/S-specific cyclin-D3 (Homo sapiens, UniProt Q00534)
Sequence (Q00534 whole entry): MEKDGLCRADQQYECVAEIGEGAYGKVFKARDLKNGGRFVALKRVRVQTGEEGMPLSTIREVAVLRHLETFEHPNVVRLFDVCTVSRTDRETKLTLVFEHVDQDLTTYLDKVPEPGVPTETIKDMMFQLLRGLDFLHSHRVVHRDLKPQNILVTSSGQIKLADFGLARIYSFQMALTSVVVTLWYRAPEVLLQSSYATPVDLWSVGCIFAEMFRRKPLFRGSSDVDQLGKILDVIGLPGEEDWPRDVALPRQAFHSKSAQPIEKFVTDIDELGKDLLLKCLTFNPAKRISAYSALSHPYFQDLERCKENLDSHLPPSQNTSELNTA
Sequence (P30281 whole entry, further chain): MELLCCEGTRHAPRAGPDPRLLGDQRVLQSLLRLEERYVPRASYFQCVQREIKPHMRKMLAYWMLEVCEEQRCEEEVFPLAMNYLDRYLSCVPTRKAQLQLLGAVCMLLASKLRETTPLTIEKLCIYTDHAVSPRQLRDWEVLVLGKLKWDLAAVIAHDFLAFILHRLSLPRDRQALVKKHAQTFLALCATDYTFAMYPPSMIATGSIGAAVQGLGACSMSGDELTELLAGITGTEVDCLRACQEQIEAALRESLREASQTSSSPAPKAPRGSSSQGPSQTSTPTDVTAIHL
experimental-endpoint: pIC50
Answers are plain numbers, as −log10 of the molar value.

Reported pIC50 for Cyclin-dependent kinase 6/G1/S-specific cyclin-D3 (Homo sapiens, UniProt Q00534), given CC(C)c1nn(-c2c(Cl)cccc2Cl)c2nc(Cc3ccc(OCCO)cc3)[nH]c(=O)c12 ? 6.55

---

target: Cyclin-dependent kinase/G2/mitotic-specific cyclin- 1 (Homo sapiens, UniProt P06493)
assay-details: In Vitro Kinase Assay
Kindly state pIC50 for each of the entries shown.
Give bare numbers, as −log10 of the molar value.

For every item in the list below, what is its measured pIC50?
1. COc1ccc(Cc2nc3c(c(C(C)C)nn3-c3c(Cl)cccc3Cl)c(=O)[nH]2)cc1 [Pyrazolopyrimidone analog, RGB-286331]
2. CC(C)c1nn(-c2c(Cl)cccc2Cl)c2nc(Cc3ccc(OCCN4CCOCC4)cc3)[nH]c(=O)c12 [Pyrazolopyrimidone analog, RGB-285960]
3. COc1ccc(Cc2nc3c(c(C(C)C)nn3-c3c(Cl)cc(Cl)cc3Cl)c(=O)[nH]2)cc1 [Pyrazolopyrimidone analog, RGB-285940]

1: 7.37; 2: 6.51; 3: 6.64

Name the recorded pIC50 for CC(C)c1nn(-c2c(Cl)cccc2Cl)c2nc(Cc3ccc(OCCO)cc3)[nH]c(=O)c12 [Pyrazolopyrimidone analog, RGB-286147] . 7.32

---

target: Cyclin-dependent kinase/G2/mitotic-specific cyclin- 1 (Homo sapiens)
assay-details: Inhibition Assay
experimental-endpoint: pIC50
Answers are plain numbers, as −log10 of the molar value.

Name the recorded pIC50 for COCCOCCOCCOc1ccc(Cc2nc3c(c(C(C)C)nn3-c3c(Cl)cccc3Cl)c(=O)[nH]2)cc1 [PEGylated derivative, RGB-286276] . 7.08

---

target: Cyclin-dependent kinase/G2/mitotic-specific cyclin- 1 (Homo sapiens, UniProt P06493)
assay-details: Cell Proliferation Assay
experimental-endpoint: IC50

These solved cases illustrate the format of a correct answer.
INSERT INTO assay_data (molecule, result) VALUES
  ('COc1ccc(Cc2nc3n[nH]c(C(C)C)c3c(=O)[nH]2)cc1 [Pyrazolopyrimidone analog, RGB-310595]', '> 10 µM'),
  ('COc1ccc(Cc2nc3c(c(C(C)C)nn3-c3ccccc3)c(=O)[nH]2)cc1 [Pyrazolopyrimidone analog, RGB-310596]', '> 10 µM');

# context switch: different molecule, same IC50
Name the recorded IC50 for COc1ccc(Cc2nc3c(c(Cc4ccccc4)nn3-c3c(Cl)cc(Cl)cc3Cl)c(=O)[nH]2)cc1 [Pyrazolopyrimidone analog, RGB-310591] . > 10 µM

Just for reference, BindingDB's records for doi:10.1016/j.chembiol.2005.08.008 is where these values come from.
